system: MDA-N; test: NCI tumour cell line growth inhibition, 48 h
Activity calls are given as the source filed them. Cut-off read from the data, not from the text of the source: active = GI50 up to about 1.1 µM and inactive = higher.
Could you please pick one outcome from this set? active, inactive

Exercise: Could you kindly confirm the outcome this assay logged for CCC(C)C1NC(=O)C(NC(=O)C(CC(C)C)N(C)C(=O)[C@@H]2C=CCN2C(=O)[C@H](C)O)C(C)OC(=O)[C@H](Cc2ccc(OC)cc2)N(C)C(=O)[C@@H]2CCCN2C(=O)[C@H](CC(C)C)NC(=O)C(C)C(=O)[C@H](C(C)C)OC(=O)CC1O (some centres not stated) ?
Solution: active

Exercise: // repeat for COCCc1c(C)c(C#N)c2n(C)c3ccccc3n2c1=O and report
Solution: inactive

Exercise: // repeat for O=C1C[C@H](c2ccccc2)O[C@@H](c2ccccc2)C1 and report
Solution: inactive

Exercise: // repeat for CCCOC(=O)c1cc(C(=CCC[C@H]2CC[C@@]3(C)[C@@H](CC[C@@H]4[C@@H]3CC[C@]3(C)[C@@H](C(C)CCCC(C)C)CC[C@@H]43)C2)c2cc(Cl)c(O)c(C(=O)OCCC)c2)cc(Cl)c1O (some centres not stated) and report
Solution: inactive

Exercise: // repeat for CC(=O)OCC1OC(OCCCOP(=S)(OCCC#N)OCC2OC(n3ccc(N)nc3=O)C(OC(=O)c3ccccc3)C2OC(=O)c2ccccc2)C(OC(C)=O)C(OC(C)=O)C1OC(C)=O (configuration not stated) and report
Solution: inactive

Exercise: // repeat for NC1C2C(CC(=O)O)OCC=C3CN4CCC1(C(=O)C(=O)O)C4CC32 (configuration not stated) and report
Solution: inactive

Exercise: // repeat for COc1cccc([C@H]2C/C(=N\NC(=O)C(=O)N[C@@H](C)c3ccccc3)c3ccccc3N2)c1 and report
Solution: active

Exercise: // repeat for CCOc1ncn(-c2ccc(NC(=S)NC3OC(CO)C(O)C(O)C3O)cc2)n1 (configuration not stated) and report
Solution: inactive

Exercise: // repeat for Nc1ccc2c(c1)NC(=O)[C@@H]1CCCN1C2=O and report
Solution: inactive

Exercise: // repeat for CN(C)c1ccc(/C=C/C(=O)N[C@@H]2C(=O)N3[C@@H]2SC(C)(C)[C@@H]3C(=O)O)cc1 and report
Solution: inactive

Exercise: // repeat for COc1cc(OC)c(OC)cc1/C=C1\C=Cc2ccccc21 and report
Solution: inactive

Exercise: // repeat for COc1ccc(N)c(C(O)CCNC(C)=O)c1 (configuration not stated) and report
Solution: inactive

Exercise: // repeat for CC(C)(C)C(=O)OCOP(=O)(OCOC(=O)C(C)(C)C)OCC1OC(n2ccc(=O)[nH]c2=O)C(N=[N+]=[N-])C1O (configuration not stated) and report
Solution: inactive

Exercise: // repeat for NCCN(CCN(C(=O)Nc1ccccc1)c1ccccc1)C(=O)Nc1ccccc1 and report
Solution: inactive

Exercise: // repeat for O=C1OC([C@H](O)c2cccnc2)c2ccccc21 (some centres not stated) and report
Solution: inactive

Exercise: // repeat for CC1(C)N=c2[nH]cnc2=C(C(N)=O)N1 and report
Solution: inactive

Exercise: // repeat for O=C(O)c1cc2ccccc2c(/N=N\c2cc(C(F)(F)F)ccc2Cl)c1O and report
Solution: inactive

Exercise: // repeat for Cc1c2ccnc(C(=O)NCCN(C)C)c2cc2c3cc(O)ccc3n(C)c12 and report
Solution: active

Exercise: // repeat for CC(=O)N(C)c1ccc(/N=C/N(C)C)cc1 and report
Solution: inactive

Exercise: // repeat for NC1=NCN(C2OC(CO)C(O)C2O)C(=O)N1 (configuration not stated) and report
Solution: inactive

Exercise: // repeat for O=C(/N=N/c1ccccc1Br)NNc1ccccc1Br and report
Solution: inactive

Exercise: // repeat for c1ccc(C[n+]2cccc(-c3cc4ccccc4[nH]3)c2)cc1 and report
Solution: inactive

Exercise: // repeat for COc1ccc(CC2CCc3nc(N)nc(N)c3C2)cc1OC (configuration not stated) and report
Solution: active

Exercise: // repeat for Cc1ccc(-n2cc(-c3ccc(Cl)cc3)c3c2N=CN2N=C(c4cccs4)NC32)cc1 (configuration not stated) and report
Solution: inactive

Exercise: // repeat for CCOC(=O)c1cc(=O)oc2c1N(C)c1ncccc1N2 and report
Solution: inactive

Exercise: // repeat for COc1cc(OCc2ccc3oc(=O)c(-c4ccccc4)nc3c2)cc(OC)c1OC and report
Solution: inactive

Exercise: // repeat for COC1CC(OC2CCC3(C)C(=CCC4C3C(OC(C)=O)C(OC(=O)CC(C)C)C3(C)C(C(C)=O)CCC43O)C2)OC(C)C1OC1CC(OC)C(OC2CC(OC)C(OC3OC(C)C(O)C(OC)C3O)C(C)O2)C(C)O1 (configuration not stated) and report
Solution: inactive
